target: Cyclooxygenase (Bos taurus) (UniProt O62664+O62698); assay: Inhibition of prostaglandin synthetase in bovine seminal vesicle microsomes using Beckman liquid scintillation counter at 10 e-5 M; conditions: Microsome
Entries annotated with measured inhibition
// units = %; emit number, no label

# MOLECULE, MEASURED_RESULT
data = [
    ("Cc1cc(N/C(=N\\C2CCCC2)Nc2nccs2)c2ccccc2n1", 58.7),
    ("Cc1ccc2cc(N/C(=N\\C(C)(C)C)Nc3nccs3)ccc2n1", 3.7),
    ("CCCc1cc(N/C(=N/C2CCCCC2)Nc2nccs2)c2ccccc2n1", 56),
    ("Cc1cc(N/C(=N/C(C)(C)C)Nc2nnc(C)s2)c2ccccc2n1", 33),
]

Task item: inhibition lookup needed for CC(C)(C)/N=C(/Nc1nccs1)Nc1cccc2ncccc12 , thanks.
Reply: 9

Task item: inhibition lookup needed for CCOC(=O)c1cnc(/N=C(\Nc2cc(C)nc3ccccc23)NC(C)(C)C)s1 , thanks.
Reply: 15.8

Task item: inhibition lookup needed for CC(C)(C)N=C(Nc1nccs1)Nc1nccs1 , thanks.
Reply: 13.1

Task item: inhibition lookup needed for Cc1cc(N/C(=N\C(C)C(C)(C)C)Nc2nccs2)c2ccccc2n1 (stereo unspecified) , thanks.
Reply: 4

Task item: inhibition lookup needed for CCOc1cc(N/C(=N/C(C)(C)C)Nc2nccs2)c2ccccc2n1 , thanks.
Reply: 88.9

Task item: inhibition lookup needed for CCCCC/N=C(\Nc1nccs1)Nc1cc(C)nc2ccccc12 , thanks.
Reply: -37

Task item: inhibition lookup needed for CC(C)Cc1cc(N/C(=N/C(C)(C)C)Nc2nccs2)c2ccccc2n1 , thanks.
Reply: 20

---

experiment: Lethal dose in mice determined by Litchfield and Wilcoxon methods after peroral administration.; assay type: toxicity, organism-based; details: mouse, in vivo, po
Entries annotated with measured LD50

Reference set, count: 5
# MOLECULE, MEASURED_RESULT
measured = [
    ("CCCCCCCCCC/N=C(\\Nc1nccs1)Nc1cc(C)nc2ccccc12", "> 1000 mg/kg"),
    ("CCOC(=O)c1csc(/N=C(\\Nc2cc(C)nc3ccccc23)NC(C)(C)C)n1", "> 1000 mg/kg"),
    ("Cc1cc(N/C(=N/C2CCCCC2)Nc2ncc(C(=O)O)s2)c2ccccc2n1", "> 1000 mg/kg"),
    ("c1ccc2c(N/C(=N/C3CCCCC3)Nc3nccs3)ccnc2c1", "> 1000 mg/kg"),
    ("Cc1cc(N/C(=N/C2CCCCC2)NC2NC=CS2)c2ccccc2n1 (stereo unspecified)", "> 1000 mg/kg"),
]

Task item: LD50 lookup needed for Clc1ccc2c(N/C(=N/C3CCCCC3)Nc3nccs3)ccnc2c1 , thanks.
Reply: > 1000 mg/kg

---

test: Lethal dose in mice determined by Litchfield and Wilcoxon methods after peroral administration.; type: toxicity, organism-based; conditions: mouse, in vivo, po
REPORTED_METRIC: LD50

Reference set, count: 5
# COMPOUND, LD50
records = [
    ("CC(C)(C)/N=C(/Nc1nccs1)Nc1cccc2ccccc12", "> 1000 mg/kg"),
    ("Cc1cc(N/C(=N/C2CCCCC2)Nc2nc3ccccc3s2)c2ccccc2n1", "> 1000 mg/kg"),
    ("c1ccc(-c2cc(N/C(=N/C3CCCCC3)Nc3nccs3)c3ccccc3n2)cc1", "> 1000 mg/kg"),
    ("Cc1cc(N/C(=N/C2CCCCC2)Nc2nc3ccccc3[nH]2)c2ccccc2n1", "> 1000 mg/kg"),
    ("CC(C)(C)/N=C(\\Nc1nccs1)Nc1ccnc2ccccc12", "> 1000 mg/kg"),
]

Task item: LD50 lookup needed for Cc1cc(N/C(=N/C2CCCCC2)Nc2ccccc2)c2ccccc2n1 , thanks.
Reply: 300 mg/kg

Task item: LD50 lookup needed for Cc1cc(N/C(=N/C(C)(C)C)Nc2nnc(C)s2)c2ccccc2n1 , thanks.
Reply: > 1000 mg/kg

Task item: LD50 lookup needed for Cc1csc(/N=C(\Nc2cc(C)nc3ccccc23)NC(C)(C)C)n1 , thanks.
Reply: 600 mg/kg

Task item: LD50 lookup needed for Cc1cc(N/C(=N/C2CCCCC2)Nc2nncs2)c2ccccc2n1 , thanks.
Reply: 250 mg/kg

Task item: LD50 lookup needed for Cc1cc(/N=C(\Nc2nccs2)NC2CCCCC2)c2ccccc2n1 [TIMEGADINE] , thanks.
Reply: > 1000 mg/kg

Task item: LD50 lookup needed for Cc1cc(N/C(=N/C2CCC(C)CC2)Nc2nccs2)c2ccccc2n1 (configuration not stated) , thanks.
Reply: > 1000 mg/kg
